So I've got a bunch of compounds here, and I need their Na values.
# Species: Rattus norvegicus
# measurement protocol: Open TG-GATES - Regimen: Daily Repeat
# Format: toxicity, organism-based, Sprague-Dawley
# Design: regimen Daily Repeat, gender Male, age 6 weeks
# conditions used: in vivo, po, 100 mg/kg, […], tissue Plasma, route gavage, dose level Low, time 14 day
Answers are plain numbers, in meq/L.

Use these answered entries as a reference point.
| compound | unit symbol | Na |
| --- | --- | --- |
| O=C(N[C@H](CO)[C@H](O)c1ccc([N+](=O)[O-])cc1)C(Cl)Cl | meq/L | 142.8 |
| CCN1CCCC1CNC(=O)c1cc(S(N)(=O)=O)ccc1OC (centres undefined) [SULPIRIDE] | meq/L | 141.2 |
| CC(C)(S)[C@@H](N)C(=O)O | meq/L | 142.4 |

Here is the next item to consider.
May I ask what Na has been recorded for `O=C(O)c1cccnc1` ?
138.4
